List of inhibition values.
Biological target: Ubiquitin carboxyl-terminal hydrolase isozyme L1 (Homo sapiens)
Assay: blocks human UCHL1 ubiquitin-rhodamine cleavage (AID 1645859)
Settings: purified UCHL1, Ub-rhodamine cleavage fluorescence; at 20 µM; active compounds read high
In all, about 47,000 compounds went through this assay and about 95 (0.2%) were called active. Many of the other results were omitted from the sample, so actives are more common in it than they were.

>  <Compound>
COCCC(=O)N1CCC2(C/C=C/Cc3ccccc3OCC(=O)NCCNC2=O)CC1

>  <Assay system>
Ubiquitin carboxyl-terminal hydrolase isozyme L1 (Homo sapiens)

>  <inhibition [%]>
3.12

$$$$
>  <Compound>
O=C(C1CCN(c2nc3cccnc3s2)CC1)N1CCN(c2ncccn2)CC1

>  <Assay system>
Ubiquitin carboxyl-terminal hydrolase isozyme L1 (Homo sapiens)

>  <inhibition [%]>
5.79

$$$$
>  <Compound>
O=C(c1ccccn1)N1C[C@@H]2C[C@H]1C[C@@H]2NS(=O)(=O)c1ccccc1

>  <Assay system>
Ubiquitin carboxyl-terminal hydrolase isozyme L1 (Homo sapiens)

>  <inhibition [%]>
-1.88

$$$$
>  <Compound>
CN(C)S(=O)(=O)N1C[C@H](OCc2ccccn2)[C@H]2OCCC[C@H]21

>  <Assay system>
Ubiquitin carboxyl-terminal hydrolase isozyme L1 (Homo sapiens)

>  <inhibition [%]>
-1.03

$$$$
>  <Compound>
Cc1nc(-c2cn(C(C)C)c3ncccc23)sc1C(=O)N1CCCC1

>  <Assay system>
Ubiquitin carboxyl-terminal hydrolase isozyme L1 (Homo sapiens)

>  <inhibition [%]>
1.73

$$$$
>  <Compound>
O=C1N[C@H]2OCCC[C@H]2[C@H](c2cccc(CNC(=O)c3ccon3)c2)N1

>  <Assay system>
Ubiquitin carboxyl-terminal hydrolase isozyme L1 (Homo sapiens)

>  <inhibition [%]>
1.68

$$$$
>  <Compound>
CCc1cnc(N2CCC3(CC2)CC(Oc2cccnc2)C3)nc1

>  <Assay system>
Ubiquitin carboxyl-terminal hydrolase isozyme L1 (Homo sapiens)

>  <inhibition [%]>
-4.29

$$$$
>  <Compound>
CC(C(=O)Nc1ccccc1F)C1CCN(C(=O)Nc2ccccc2)CC1 (stereo unspecified)

>  <Assay system>
Ubiquitin carboxyl-terminal hydrolase isozyme L1 (Homo sapiens)

>  <inhibition [%]>
0.962

$$$$
>  <Compound>
COc1ccc(CN=C2NS(=O)(=O)C(c3ccc(F)cc3)=C2C)cc1OC

>  <Assay system>
Ubiquitin carboxyl-terminal hydrolase isozyme L1 (Homo sapiens)

>  <inhibition [%]>
-4.12

$$$$
>  <Compound>
CNCC(=O)N1CCCC(c2nc(C)cc(Nc3cccc(C)n3)n2)C1 (stereo unspecified)

>  <Assay system>
Ubiquitin carboxyl-terminal hydrolase isozyme L1 (Homo sapiens)

>  <inhibition [%]>
0.00326

$$$$
>  <Compound>
Cc1nc(Nc2ccccn2)cc(C2CCCN2Cc2ncc[nH]2)n1 (stereo unspecified)

>  <Assay system>
Ubiquitin carboxyl-terminal hydrolase isozyme L1 (Homo sapiens)

>  <inhibition [%]>
-2.35

$$$$

---

Biological target: Ubiquitin carboxyl-terminal hydrolase isozyme L1 (Homo sapiens)
Assay: blocks human UCHL1 ubiquitin-rhodamine cleavage (AID 1645859)
Settings: purified UCHL1, Ub-rhodamine cleavage fluorescence; at 20 µM; active compounds read high
In all, about 47,000 compounds went through this assay and about 95 (0.2%) were called active. The entries come from a sample that favours actives as a whole.
inhibition overview

>  <Compound>
COc1ccccc1C1CNCCN1Cc1cnc(N(C)C)nc1 (centres undefined)

>  <inhibition, %>
-0.867

$$$$
>  <Compound>
O=C(Nc1ccc2c(c1)CCC2)N1CCc2c(nc(-c3ccccc3)[nH]c2=O)C1

>  <inhibition, %>
-2.41

$$$$
>  <Compound>
COc1cccc(C2NC(=O)c3c(sc4c3CCC(C)C4)N2)c1O (centres undefined)

>  <inhibition, %>
-0.199

$$$$
>  <Compound>
COc1ccc(N2C(=O)c3ccccc3NC2c2ccc(OCC(N)=O)cc2)cc1 (centres undefined)

>  <inhibition, %>
3.76

$$$$
>  <Compound>
Cc1noc(C2CN(Cc3nccs3)Cc3ccnn3C2)n1 (centres undefined)

>  <inhibition, %>
-2.68

$$$$
>  <Compound>
O=C(c1cn(-c2cc(-c3nc(C4CC4)no3)ccn2)cn1)N1CCCCCC1

>  <inhibition, %>
-3.62

$$$$
>  <Compound>
Cc1ncc(-c2ccncc2)c(C2CCN(C(=O)c3cnccn3)CC2)n1

>  <inhibition, %>
0.226

$$$$
>  <Compound>
Cc1nc2ccccc2n(CC(=O)NCc2ccc(OC(C)C)cc2)c1=O

>  <inhibition, %>
-4.18

$$$$
>  <Compound>
CC(CC(=O)N1CCc2ccccc2C1)S(=O)(=O)c1ccc2c(c1)NC(=O)CCS2 (centres undefined)

>  <inhibition, %>
-1.85

$$$$

---

Recorded measurements of inhibition, one per entry
Target: Ubiquitin carboxyl-terminal hydrolase isozyme L1 (Homo sapiens) (UniProt P09936)
Sequence (P09936 whole entry, looked up): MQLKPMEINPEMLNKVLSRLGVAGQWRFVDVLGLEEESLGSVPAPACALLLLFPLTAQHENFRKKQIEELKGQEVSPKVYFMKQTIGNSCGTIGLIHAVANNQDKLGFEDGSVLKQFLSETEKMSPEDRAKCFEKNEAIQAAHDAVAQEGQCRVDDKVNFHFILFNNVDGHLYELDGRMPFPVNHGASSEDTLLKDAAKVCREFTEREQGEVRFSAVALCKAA
Test: blocks human UCHL1 ubiquitin-rhodamine cleavage (AID 1645859)
Details: purified UCHL1, Ub-rhodamine cleavage fluorescence; at 20 µM; active compounds read high
Screen size: about 47,000 compounds; about 95 (0.2%) were called active. The full list was thinned out, with actives kept by preference.
Measure name: inhibition (%)

>  <Compound>
CCOC(=O)C1=C(COc2ccccc2C#N)NC(=O)NC1C (centres undefined)

>  <Readout value>
-3.02

$$$$
>  <Compound>
FC(F)(F)c1ccc(-c2nnc(SCCOc3ccccc3)o2)cc1

>  <Readout value>
11.1

$$$$
>  <Compound>
Cc1ccc(C)c(NC(=O)C(Sc2nnc(-c3ccccc3)n2C)c2ccccc2)c1 (centres undefined)

>  <Readout value>
0.846

$$$$
>  <Compound>
Cc1cc(F)ccc1NC(=O)c1cc(C2CC2)n2nccc2n1

>  <Readout value>
1.97

$$$$
>  <Compound>
O=C(Cc1ccccc1)Nc1ccc(-c2nc3cnccc3o2)c(O)c1

>  <Readout value>
0.256

$$$$
>  <Compound>
Cc1cnn(CC2CCCCN2C(=O)Cc2c(C)noc2Cl)c1 (centres undefined)

>  <Readout value>
0.232

$$$$
>  <Compound>
Cc1nc(N(C)Cc2ccccc2)c2c3c(sc2n1)CCCC3

>  <Readout value>
-6.54

$$$$
>  <Compound>
Cn1c(CCN2CCCC2)nc2cc(NS(=O)(=O)c3ccccc3)ccc21

>  <Readout value>
-2.94

$$$$
>  <Compound>
Cc1ccc(S(=O)(=O)N2CCC(c3nc(C(=O)N(C)C)c(C)o3)CC2)c(C)c1

>  <Readout value>
-3.64

$$$$
>  <Compound>
O=C(NCc1ccc(F)cc1F)c1csc(C(=O)NC2CC2)n1

>  <Readout value>
-3.4

$$$$
>  <Compound>
CO[C@H]1C[C@@H]2CC[C@@H](C)[C@@](O)(O2)C(=O)C(=O)N2CCCC[C@H]2C(=O)O[C@H]([C@H](C)C[C@@H]2CC[C@@H](O)[C@H](OC)C2)CC(=O)[C@H](C)/C=C(\C)[C@@H](O)[C@@H](OC)C(=O)[C@H](C)C[C@H](C)/C=C/C=CC=C1C

>  <Readout value>
6.78

$$$$
>  <Compound>
CC(C)(C)c1ccc(Oc2ccc(NC(=O)c3ccc4c(c3)CCO4)cn2)cc1

>  <Readout value>
1.03

$$$$
>  <Compound>
COc1ccc(NC(=O)C2=C(C)Nc3ncnn3C2c2cccc(OCc3ccc(F)cc3)c2)c(OC)c1 (centres undefined)

>  <Readout value>
4.6

$$$$
>  <Compound>
CC(C)c1cc(N2CCCCC2)nc(-c2ccccn2)n1

>  <Readout value>
-3.77

$$$$
>  <Compound>
O=C1CN(C(=O)c2ccc(Cl)o2)c2ccccc2N1

>  <Readout value>
-5.13

$$$$
>  <Compound>
CC(C)NC(=O)[C@H]1CCS(=O)(=O)[C@@H]2CN(Cc3ccccc3)C[C@H]12

>  <Readout value>
3.58

$$$$
>  <Compound>
O=C(Nc1cccc(-c2cccc(F)c2)c1)C1CCN(Cc2cccc3c2OCO3)CC1

>  <Readout value>
6.73

$$$$
>  <Compound>
O=C(Nc1nc2nc(-c3ccccc3)cc(=O)n2[nH]1)C1CCCCC1

>  <Readout value>
4.88

$$$$
>  <Compound>
Cc1sc2ncn(CC(=O)N3c4ccccc4CC3C)c(=O)c2c1C (centres undefined)

>  <Readout value>
-2.03

$$$$
>  <Compound>
COC(=O)C(C(C)C)N1CCc2c(C)nc3cc(C#N)nn3c21 (centres undefined)

>  <Readout value>
-5.64

$$$$
>  <Compound>
O=C(Nc1ccc(F)cc1)c1cc(CN2CCOCC2)on1

>  <Readout value>
1.96

$$$$
>  <Compound>
Oc1cccc2nc3c(O)cccc3nc12

>  <Readout value>
28.5

$$$$
>  <Compound>
CCc1nnc2ccc(C(=O)N3CCN(c4ccccn4)CC3)cn12

>  <Readout value>
1.5

$$$$
>  <Compound>
CC(C)c1ccc(C2CC(=O)c3cn[nH]c3C2)cc1 (centres undefined)

>  <Readout value>
0.362

$$$$
